Cited source for all entries: patent EP4682169A1

- assayed target: T1, Claudin 18.2 VLP (UniProt P56856 1-261)
- T1 construct: Antigen coated on ELISA plates, 200 ng/well; source and construct not described; also called Claudin18.2-VLP protein; Claudin18.2 VLP antigen
- test description: ELISA, coated antigen 200 ng/well; antibody 1.111 ug/mL
I'd appreciate it if you could supply absorbance at 450 nm values for the items below.

# example entries with known answers
1. 5-hIgG1Fc (Fc fusion, VHH-hIgG1Fc recombinant antibody; also called 5-hlgG1Fc; VHH-hIgG1Fc recombinant antibody of clone 5; not shown: human IgG1 Fc (hIgG1Fc)) QVQLVESGGGLVQTGGSLRLSCAASDSTFSSYIMGWFRQAPGKEREFVAGITWSGGIKDYADSVKGRFTIARDNAKNTVYLQMNSLKPEDAAIYYCAANAIQLTRRSGDYAYWGQGTQVTVSS | 1.86
2. 10-hIgG1Fc (Fc fusion, VHH-hIgG1Fc recombinant antibody; also called 10-hlgG1Fc; VHH-hIgG1Fc recombinant antibody of clone 10; not shown: human IgG1 Fc (hIgG1Fc)) QVQLAESGGGLVQPGGSLRLSCAASGNILSINYMGWYRQAPGKERELVATITRGGTTNYQGDLKGRFIISGDNTKDTVYLQMNNLQPEDTAVYYCYFRINFGILGGLRDYWGQGTQVTVSS | 2.14
3. 8-hIgG1Fc (Fc fusion, VHH-hIgG1Fc recombinant antibody; also called 8-hlgG1 Fc; VHH-hIgG1Fc recombinant antibody of clone 8; not shown: human IgG1 Fc (hIgG1Fc)) QVQLVESGGGLVQPGGSLRLSCAASGSIFGLNFMGWWRQAPGSQRELVAIATSGGSIQYGDSVKGRFTISRDNAKNTVYLQMASLKPEDTAVYYCNVHTYDFLGRDYWGQGTQVTVSL | 1.87

Read the next record carefully.
Challenge: Param item = 1-hIgG1Fc (Fc fusion, VHH-hIgG1Fc recombinant antibody; also called 1-hlgG1Fc; VHH-hIgG1Fc recombinant antibody of clone 1; not shown: human IgG1 Fc (hIgG1Fc)) EVQLVGSGGGLVQPGGSLRLSCAASGSILNLMTTGWYRQAPGKQRDLVATITFGGTTNYADSVKGRFTISRDKSKNTAYLQMDNLKPEDTAVYFCYADVIVGFQDRRVAWDAGTQVTVSS ; retrieve measured absorbance at 450 nm.
Response given: 1.35
